For each entry below, report its self-cleavage value.
B1: HDV Ribozyme (parent)
chain: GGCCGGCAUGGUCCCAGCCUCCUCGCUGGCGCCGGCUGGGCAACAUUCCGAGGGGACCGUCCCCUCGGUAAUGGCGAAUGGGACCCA

- Variants of: B1
- Assay Info: self-cleavage, relative activity (ratio to wild type); higher = more cleavage; co-transcriptional
One number for each entry.

GGCCGGCAUGGUCCCGGCCUCCUCGCUGGCGCCGGCUGGGCAACAUUCCGAGGGGACCCUCCCCUCGGUAAUGGCGAAUGGGACCCA	0.929

# map each variant to its self-cleavage
1. GGACGGCAUGGUCCCAGCCUCCUCGCUGGUGCCGGCUGGGCAACAUUCCGAGGGGACCGUCCCCUCGGUAAUGGCGAAUGGGACCCA
2. GGCCGGCAUGGUCCCAGCCUCCUCGCUGGCGCCGGCUGGGCAACAUUCCGAGGGGAACGUCCCCUCGGUAAUGGCGAAUGGCACCCA

1: 0.143; 2: 0.298

For the 2 variants below, give their self-cleavage values.
1. GGCCGGCAUGGUCCCAGCCUCCUCGCUGGCGCCGGCGGGGAAACAUUCCGAGGGGACCGUCCCCUCGGUAAUGGCGAAUGGGACCCA
2. GGCCGGCAUGGUCCCAGCCUCCUCACGGGCGCCGGCUGGGCAACAUUCCGAGGGGACCGUCCCCUCGGUAAUGGCGAAUGGGACCCA

1: 0; 2: 0.133
